Tested on: RXF 393 renal
Assay: NCI tumour cell line growth inhibition, 48 h; in the data active = GI50 below about 0.43 µM; inactive = the rest
Possible outcomes: active, inactive

compound: CC1(C)Cc2c(Br)c(Br)c(Br)c(OCC(O)CN3CCOCC3)c2O1 (centres undefined)
qualitative-label: inactive
--
compound: N=C(N)c1ccc(-c2ccc(-c3ccc(F)cc3)o2)o1
qualitative-label: inactive
--
compound: CCC[CH2][Sn]1([CH2]CCC)[O]C(=O)CN=Cc2ccccc2[O]1
qualitative-label: active
--
compound: NC1=NC(c2ccc(F)cc2)C2=C(N1)c1ccc3ccccc3c1OCC2 (centres undefined)
qualitative-label: inactive

====

Test system: MDA-MB-435
Experiment: NCI tumour cell line growth inhibition, 48 h
Measured TGI of individual entries

compound: COc1ccc(-n2c3c(c4c(CN(C)C)c(O)c(C)cc42)CCc2ccccc2C3=O)cc1
censor-symbol: =
TGI [µM]: 40.4
--
compound: CC(=N\N=C\c1ccccn1)/C(C)=N/N=C(C)/C(C)=N/N=C(C)/C(C)=N/N=C/c1ccccn1
censor-symbol: >
TGI [µM]: 100
--
compound: Nc1nc2cc(CNc3ccc(C(=O)NC(CCC(=O)O)C(=O)O)cc3)ccc2nc1-c1ccccc1 (stereo not drawn)
censor-symbol: >
TGI [µM]: 10
--
compound: O=C(O)/C=C/C(=O)O
censor-symbol: >
TGI [µM]: 100
--
compound: CCOC(=O)C(=Cn1c(=S)[nH]c2ccc([N+](=O)[O-])cc21)C(=O)OCC
censor-symbol: >
TGI [µM]: 100
--
compound: COc1cc2c3c(n(CCCNCCNCCCN)c(=O)c2cc1OC)-c1cc2c(cc1C3=O)OCO2
censor-symbol: =
TGI [µM]: 15.6
--
compound: CC[C@@H]1CC[C@@H]2[C@H](CC[C@]3(C)[C@@H](OS(=O)(=O)c4ccc(C)cc4)CC[C@@H]23)[C@H]1CO
censor-symbol: >
TGI [µM]: 100
--
compound: COc1ccc2[nH]cc(-c3nc(-c4c[nH]c5ccncc45)cs3)c2c1
censor-symbol: =
TGI [µM]: 3.13
--
compound: CCS(=O)(=O)c1c2cc(OC)ccc2nc2ccc(OC)cc12
censor-symbol: >
TGI [µM]: 100
--
compound: Cc1cc([N+](=O)[O-])ccc1N=NC(=O)NNc1ccc([N+](=O)[O-])cc1C
censor-symbol: =
TGI [µM]: 28.4
--
compound: COC(=O)[C@@H]1CCCN1C(=O)[C@H]1CCCN1C(=O)[C@@H](Cc1c[nH]c2ccccc12)NC(=S)Nc1cc(C(F)(F)F)cc(C(F)(F)F)c1
censor-symbol: =
TGI [µM]: 9.07
--
compound: CN(C)S(=O)(=O)c1ccc(Nc2ccc(O)c3c2C(=O)c2c([N+](=O)[O-])ccc(O)c2C3=O)cc1
censor-symbol: >
TGI [µM]: 100
--
compound: CCCCCCN1CCN(Cc2ccc(N(CC)CC)cc2)C(=O)C1=O
censor-symbol: =
TGI [µM]: 2.38
--
compound: CN1CCC(n2[nH]c(-c3ccccc3)c(Cc3ccccc3)c2=O)CC1
censor-symbol: >
TGI [µM]: 100
--
compound: COc1ccc(/C=C2\CN(C)Cc3c2[nH]c(=O)c(C#N)c3-c2ccc(OC)cc2)cc1
censor-symbol: >
TGI [µM]: 100
--
compound: NC(=O)NCCCC(NC(=O)OCCCCCn1ccc(=O)[nH]c1=O)C(=O)O (stereo not drawn)
censor-symbol: >
TGI [µM]: 100
--
compound: COc1ccc(C(=O)CC(c2ccc(OC)c(OC)c2)c2c(O)c3ccccc3oc2=O)cc1OC (stereo not drawn)
censor-symbol: >
TGI [µM]: 100
--
compound: COc1ccc(C2c3cc4c(cc3OC(N3CCCCC3)C2C)OCO4)cc1 (stereo not drawn)
censor-symbol: >
TGI [µM]: 100
--
compound: CCC(=O)c1ccc2c(c1)N(CCCN1CCN(CCO)CC1)c1ccccc1S2
censor-symbol: =
TGI [µM]: 12.3
--
compound: CC(C)CCC/C(CBr)=C(\Cl)CCl
censor-symbol: =
TGI [µM]: 6.25
--
compound: CCOC(=O)C(C)c1nc2cc(N3CCN(C)CC3)c(F)cc2[nH]c1=O (stereo not drawn)
censor-symbol: >
TGI [µM]: 100
--
compound: O=C(/C=C/c1ccccc1O)/C=C/c1ccccc1O
censor-symbol: =
TGI [µM]: 4.64
--
compound: Cc1cc2nc3c4cccc(O)c4n(CCN(C)C)c3nc2cc1C
censor-symbol: =
TGI [µM]: 3.12
--
compound: COc1ccc(-c2cc(-c3nnc(SCC(=O)Nc4ccc(C(C)=O)cc4)o3)c3ccccc3n2)cc1
censor-symbol: >
TGI [µM]: 100
--
compound: Cc1ccc2[nH]c(C(=O)NN3C(=O)C(C)SC34CCCCC4C)c(-c3ccccc3)c2c1 (stereo not drawn)
censor-symbol: =
TGI [µM]: 33.1
--
compound: CC(=O)OCC1OC(c2nnc(C)o2)=CC(OC(C)=O)C1OC(C)=O (stereo not drawn)
censor-symbol: >
TGI [µM]: 100
--
compound: COC(=O)c1ccccc1CC(Cc1ccccc1)C(=O)OC (stereo not drawn)
censor-symbol: >
TGI [µM]: 100
--
compound: Cc1cc(N=C2C=C(Nc3cc(C)on3)C(=O)c3ccccc32)no1
censor-symbol: =
TGI [µM]: 22.5
